- Test system: KM12 colon
- Test Description: NCI-60 one-dose screen, 48 h
- Stated Conditions: 10 µM unless noted
About 83,000 compounds went through this panel and 20% of them were active in at least one assay; those are over-represented in the sample as a whole. Active and inactive are the calls of the source. Rule for the calls: active = growth percent below 10; inactive = the rest.
Mark one answer only. Choices: true (active), false (inactive)

Prompt line: Recorded test call requested for CC(=O)OCCC/C(=C/c1cc2ccccc2c2ccccc12)[N+](=O)[O-]
Response line: true

Prompt line: Recorded test call requested for O=C1NC(=Nc2ccc(O)cc2)S/C1=C\c1cccc(Cl)c1
Response line: false

Prompt line: Recorded test call requested for Cc1ccc(-c2onc3c(=O)[nH]nc(-c4ccccc4)c23)cc1
Response line: false

Prompt line: Recorded test call requested for COc1cccc(NC(=O)c2sc3nc(C)c(C(C)=O)cc3c2N)c1
Response line: false

Prompt line: Recorded test call requested for O=C1c2ccccc2C(=O)c2c1ccc1[nH]c(-c3cccs3)nc21
Response line: false

Prompt line: Recorded test call requested for c1csc(C2=NN3C(C2)c2ccccc2OC3c2ccncc2)c1 (centres undefined)
Response line: false

Prompt line: Recorded test call requested for N#CN1CCC[C@H]1C(=O)N1CCc2c(-c3[nH]nc4ncccc34)cccc21
Response line: true

Prompt line: Recorded test call requested for COc1cccc(-c2nc3sccn3c2-c2ccnc(NCCNS(=O)(=O)c3ccc(F)cc3)c2)c1
Response line: false

Prompt line: Recorded test call requested for COc1ccc(-c2n[nH]nc2-c2csc3ccccc23)cc1OC
Response line: false

Prompt line: Recorded test call requested for COc1ccc(-n2nc(C)c3c(Nc4ccc(NC(=O)Nc5ccc(Cl)c(C(F)(F)F)c5)cc4)ncnc32)cc1
Response line: true

Prompt line: Recorded test call requested for Cn1cccc1-c1nc2c3c(ccc2[nH]1)C(=O)c1ccccc1C3=O
Response line: false

Prompt line: Recorded test call requested for O=C(N(c1ccccc1)c1ccccc1)n1ccc2nc(Cl)nc(Cl)c21
Response line: false

Prompt line: Recorded test call requested for CN(CCCCCl)P(=O)(OCc1ccc([N+](=O)[O-])o1)C(F)(F)c1ccc(CC(=O)NC[C@@H](O)/C=C\[C@@H](O)[C@H](CO)Cc2ccccc2)cc1 (some centres undefined)
Response line: false

Prompt line: Recorded test call requested for COc1cccc2c1C(=O)c1c(O)c3c(c(O)c1C2=O)C[C@](O)(C(=O)CO)C[C@H]3O[C@@H]1C[C@@H](NC(=O)CCCCCN(C)C2(c3ccc(F)cc3)CC3CCC2C3)[C@H](O)[C@@H](C)O1 (some centres undefined)
Response line: true

Prompt line: Recorded test call requested for CC1=C/C(=C(\c2ccc(N(C)C)cc2)c2ccc([N+](C)(C)C)cc2)C=CC1=[N+](C)C
Response line: false

Prompt line: Recorded test call requested for CCOc1nc(-c2ccccc2)cc2c(O)c(C(=O)N/N=C/c3ccc(O)cc3O)[nH]c(=O)c12
Response line: false

Prompt line: Recorded test call requested for O=S(=O)(Nc1ccc(Cl)c(F)c1)c1ccc(-c2cnc(C3CC3)o2)cc1
Response line: false

Prompt line: Recorded test call requested for FC(F)(F)c1nc2c(NCc3ccc(-c4ccccc4)cc3)cccc2[nH]1
Response line: false

Prompt line: Recorded test call requested for CCOc1cc2ncc(C#N)c(Nc3ccc(OCc4cccc(F)c4)c(Cl)c3)c2cc1NC(=O)CC1CCSS1 (centres undefined)
Response line: true

----------
- Tested on: SNB-75 CNS
- Test Description: NCI-60 one-dose screen, 48 h
- Stated Conditions: 10 µM unless noted
About 83,000 compounds went through this panel and 20% of them were active in at least one assay; those are over-represented in the sample as a whole. Activity calls are given as the source filed them. How the source made its calls: active means growth percent below 10; inactive means the rest.
Mark one answer only. Choices: 1 (yes) (active), 0 (no) (inactive)

Prompt line: Recorded test call requested for COc1ccc(SC2c3cc(OC)c(OC)cc3Oc3nc(N)c(C#N)c(N)c32)cc1 (stereo unspecified)
Response line: 1 (yes)

Prompt line: Recorded test call requested for CCOC(=O)C(C)(C#N)C1C=CCCC1 (stereo unspecified)
Response line: 0 (no)

Prompt line: Recorded test call requested for COc1ccc(-c2cc(-c3ccc(Nc4ccnc5cc(Cl)ccc45)cc3)nc(N3CCOCC3)n2)cc1
Response line: 1 (yes)

Prompt line: Recorded test call requested for Cn1cc(-c2nonc2-c2c[nH]c3ccc(F)cc23)c2cccnc21
Response line: 0 (no)

Prompt line: Recorded test call requested for COc1ccc(C(=O)COc2ccc(/C=C3\COc4ccc(OC)cc4C3=O)cc2)cc1
Response line: 0 (no)

Prompt line: Recorded test call requested for O=C1CSC(=S)N1CCc1ccc(O)cc1
Response line: 0 (no)

----------
- System: HS 578T breast
- Test Description: NCI-60 one-dose screen, 48 h (100 = growth as untreated, 0 = no growth, -100 = all killed)
- Stated Conditions: 10 µM unless noted
The panel holds about 83,000 compounds, 20% with a hit somewhere; the sample as a whole holds those more often.
Metric Name: growth (%)
Dear colleague, please return just the value in %, with no unit written.

Noted for CCN(CC)S(=O)(=O)c1ccc(OC)c(NC(=O)c2[nH]c(C)c3c2CCCCC3=O)c1 : its growth reads 16.4

Noted for COc1ccc(Nc2cc(C)nc(N3CCN(c4ccnc5cc(Cl)ccc45)CC3)n2)cc1 : its growth reads 71.1

Noted for COc1ccc(CCNc2nc(SC)nc(-c3cccc([N+](=O)[O-])c3)c2C#N)cc1OC : its growth reads 68.3

Noted for Nc1ccc(-c2cc3c(NCc4ccccc4)ncnc3s2)cc1 : its growth reads 86.5

Noted for CC/C=C\C[C@H]1C/C=C2/C(=O)C=C[C@H]2C/C=C\CCCC(=O)O1 : its growth reads 54.2

Noted for NC(=O)c1cc(Br)ccc1NC(=O)/C=C/c1ccccc1 : its growth reads 16.3

Noted for NC(=NCCCC1(c2ccccc2)CCCC1)Nc1ccc(Cl)cc1 : its growth reads 65.4

Noted for Cn1cc(C(=O)c2nc(-c3c[nH]c4ccccc34)no2)c2ccccc21 : its growth reads 56.2

Noted for O=S(=O)(Nc1ccc(Cl)c(F)c1)c1ccc(-c2cnc(C3CC3)o2)cc1 : its growth reads 16.1

Noted for NNCCc1ccc(NC(=O)CCCc2ccc(/C=C/C(=O)NO)cc2)cc1 : its growth reads 21.2

Noted for CCCCn1c(-c2ccc(C(=O)O/N=C(\N)c3ccc4c(c3)OCO4)cc2)nc(-c2ccccc2)c1-c1ccccc1 : its growth reads 41.1

Noted for CC/C=C\C[C@H](O)C/C=C1/C(=O)C=C[C@@]1(C)C/C=C\CCCC(=O)OC : its growth reads 103

Noted for CC(O)CN(CC(C)O)c1ccc2c(c1)Cc1cc([N+](=O)[O-])ccc1-2 (stereo not given) : its growth reads 95.8

Noted for Oc1cccc2ccc(N/N=C/c3cc(CN4CCOCC4)c(O)c4ncccc34)nc12 : its growth reads 36.3

Noted for Cc1ccc2c(C(C[N+](=O)[O-])c3ccco3)c(-c3ccccc3)[nH]c2c1 (stereo not given) : its growth reads 16.2

Noted for COc1ccc(-c2cc(=O)c3c(OC)c4ccoc4cc3o2)cc1 : its growth reads 120

Noted for COc1ccc(/C=C2\Oc3cc(OCCCCN4CCCC4)ccc3C2=O)cc1 : its growth reads 90.9

Noted for CCOc1ccc(-n2nc(C(=O)Nc3cc(OC)c(OC)c(OC)c3)nc2-c2cc(OC)c(OC)c(OC)c2)cc1 : its growth reads 65.6

Noted for Cc1nc2c3c(-c4ccccc4)c(-c4ccccc4)oc3ncn2n1 : its growth reads 95.8

Noted for CC(=O)OCCC/C(=C/c1cc2ccccc2c2ccccc12)[N+](=O)[O-] : its growth reads -46.2

----------
- Test system: NCI-H322M lung
- Test Description: NCI-60 one-dose screen, 48 h (100 = growth as untreated, 0 = no growth, -100 = all killed)
- Stated Conditions: 10 µM unless noted
Compounds without any hit were thinned out: in the full panel of roughly 83,000, 20% have a hit. Activity calls are given as the source filed them. Rule for the calls: active = growth percent below 10; inactive = the rest.
Metric Name: growth

Noted for O=C1OCC2=C1C(c1ccncc1)c1cc3c(cc1N2CCO)OCO3 (stereo not given) : its growth reads 98.3% (inactive)

Noted for COc1ccc(/C=C\c2cc(OC)c(OC)c(OC)c2)cc1OC(=O)c1cccc(Cn2cc(CCOC(=O)[C@H](N)Cc3cn(C)c4ccccc34)nn2)c1 : its growth reads 50.1% (inactive)

Noted for COc1cccc(/C=C2\SC(=Nc3ccc(NC(C)=O)cc3)NC2=O)c1OC : its growth reads 94.3% (inactive)

Noted for COc1ccc(-c2n[nH]nc2-c2csc3ccccc23)cc1OC : its growth reads 51.7% (inactive)

Noted for O=[N+]([O-])c1cnc(N2CCN(CC3CC3)CC2)nc1N1CCN(CC2CC2)CC1 : its growth reads 88.8% (inactive)

Noted for CCCCC[C@H]1C/C=C2/C(=O)C=C[C@@H]2C/C=C\CCCC(=O)O1 : its growth reads -52.7% (active)

Noted for Cc1cc(N2CCOCC2)nc(NCc2cc(Nc3ccnc4cc(Cl)ccc34)ccc2F)n1 : its growth reads -27.6% (active)

Noted for CCOC(=O)c1c(C)oc2ncnc(N3CCN(C(=S)Nc4ccccc4)CC3)c12 : its growth reads 92.3% (inactive)

Noted for COc1ccc(NC(=O)c2ccc(/C=C/C(=O)c3ncc[nH]3)cc2)cc1 : its growth reads 85.4% (inactive)

Noted for CCNC(=O)Oc1ccc(/C(=C(\C)c2ccc(Cl)cc2)c2ccc(OCCN(CC)CC)cc2)cc1 : its growth reads 68.7% (inactive)

Noted for O=c1cc(/C(=C2/C=CC=N2)c2ccc[nH]2)c2cc(Cl)ccc2o1 : its growth reads 55.8% (inactive)

Noted for Cn1c(=O)[nH]c(=O)c2nc(CCC(=O)NCCC(=O)O)c(=O)[nH]c21 : its growth reads 100% (inactive)

Noted for CCOc1nc(-c2ccccc2)cc2c(O)c(C(=O)N/N=C/c3ccc(O)cc3O)[nH]c(=O)c12 : its growth reads 42.2% (inactive)

Noted for CCN(CC)c1ccc(/C=N\NC(=O)/C=C/C=C/c2ccc3c(c2)OCO3)c(O)c1 : its growth reads 31.2% (inactive)

Noted for Cc1ccccc1COc1ccc(-c2ccnn2-c2ccc(Cl)cc2)cc1 : its growth reads 96.9% (inactive)

Noted for COc1ccc(SC2c3cc(OC)c(OC)cc3Oc3nc(N)c(C#N)c(N)c32)cc1 (stereo not given) : its growth reads -95% (active)

Noted for Clc1ccc2c(NCCCCNc3nc(N4CCOCC4)nc4ccccc34)ccnc2c1 : its growth reads 26.4% (inactive)

Noted for CCN(CC)c1ccc2c(c1)Oc1nc(N)c(C#N)c(N)c1C2Sc1ccc(SC)cc1 (stereo not given) : its growth reads -15.1% (active)

Noted for NNCCc1ccc(NC(=O)CCCc2ccc(/C=C/C(=O)NO)cc2)cc1 : its growth reads 64% (inactive)

Noted for Cc1ccc(O)c(N2C(=NCc3ccco3)NS(=O)(=O)c3cnccc32)c1 : its growth reads 114% (inactive)
